Origin of values: patent US9839642B2

molecular target: VIM-1 (Pseudomonas aeruginosa, UniProt A0A0F7KYQ8); experiment: Enzyme activity: determination of IC50, fluorescence assay with CCF2-FA substrate; format: biochemical; settings: enzyme 30 pM, CCF2-FA 1.25 μM, 2 hours at 25° C.; read-out: VIM1 IC50
pIC50: −log10 of the molar value.
# pIC50 values compiled below
quantity_measured: pIC50

>>> quantitative_readout("CC[C@H](C)[C@H](C(=O)O)[C@H](Cc1ccc(-c2ccc(-c3nnn[nH]3)cc2)cc1)c1nn[nH]n1")
8.29
>>> quantitative_readout("CCC[C@H](C(=O)O)[C@H](Cc1ccc(-c2ccc(N(C)C)nc2)cc1)c1nn[nH]n1")
8.37
>>> quantitative_readout("CCC[C@H](C(=O)O)[C@H](Cc1ccc(N)cn1)c1nnn[nH]1")
7.11
>>> quantitative_readout("CCC[C@H](C(=O)O)[C@H](Cc1ccc(NC2CCCN(CCC)C2)cc1)c1nn[nH]n1 (some centres unmarked)")
7.15
>>> quantitative_readout("CCC[C@H](C(=O)O)[C@H](Cc1ccc(S(=O)(=O)C2CC2)nc1)c1nnn[nH]1")
7.96
>>> quantitative_readout("CCC[C@H](C(=O)O)[C@H](Cc1ccc(C)nc1)c1nnn[nH]1")
8.21
>>> quantitative_readout("CCC[C@H](C(=O)O)[C@H](Cc1ccc(-c2ccc(CO)cc2)cc1)c1nn[nH]n1")
8.47
>>> quantitative_readout("CC(C)C[C@H](C(=O)O)[C@H](Cc1ccc(N)cn1)c1nnn[nH]1 [Example 113, 2,2,2-trifluoroacetate]")
7.10
>>> quantitative_readout("CCC[C@H](C(=O)O)[C@H](Cc1cnc(N)s1)c1nnn[nH]1")
8.19
>>> quantitative_readout("CCC[C@H](C(=O)O)[C@H](Cc1ccc(C2=CCNC2)nc1)c1nnn[nH]1")
8.41
>>> quantitative_readout("CCC[C@H](C(=O)O)[C@H](Cc1ccc(Br)nc1)c1nnn[nH]1")
8.59
>>> quantitative_readout("CCC[C@H](C(=O)O)[C@H](Cc1cccc(C(=O)O)n1)c1nnn[nH]1")
5.54
>>> quantitative_readout("CCC[C@@H](C(=O)O)[C@H](Cc1ccc(-c2ccc(N3CCNCC3)nc2)cc1)c1nnn[nH]1")
6.77
>>> quantitative_readout("CNc1ccc(C[C@H](c2nnn[nH]2)[C@@H](C(=O)O)C(C)C)cn1")
7.54
>>> quantitative_readout("O=C(O)[C@@H](CCCCc1ccccc1)[C@H](Cc1ccc2c(c1)OCO2)c1nnn[nH]1")
8.00
>>> quantitative_readout("CCC[C@H](C(=O)O)[C@H](Cc1cccc(C(N)=O)c1)c1nn[nH]n1")
8.23
>>> quantitative_readout("CCC[C@H](C(=O)O)[C@H](Cc1ccc(-c2ccc3nncn3c2)cc1)c1nnn[nH]1")
8.77
